// reported half-life for each item listed
Test description: Terminal half life in Sprague-Dawley rat at 2 mg/kg, iv and 3 mg/kg, po
Format: ADME, organism-based
Measurement conditions: in vivo, read-out: beta t1/2 (converted)

{"columns": ["Compound", "half-life / h"],
 "data": [
  ["N#Cc1cc(OC(F)(F)F)cc(-c2nc(-c3ccc4c(c3)cc3n4CCC3CC(=O)O)no2)c1 (single isomer, unassigned; enantiomer 2)", 4.68],
  ["N#Cc1cc(OC(F)(F)F)cc(-c2nc(-c3ccc4[nH]c5c(c4c3)CCC5CC(=O)O)no2)c1 (single isomer, unassigned)", 5.46]
]}

* * *

Target system: Cytochrome P450 2C19 (Homo sapiens, UniProt P33261)
Sequence (P33261 whole entry): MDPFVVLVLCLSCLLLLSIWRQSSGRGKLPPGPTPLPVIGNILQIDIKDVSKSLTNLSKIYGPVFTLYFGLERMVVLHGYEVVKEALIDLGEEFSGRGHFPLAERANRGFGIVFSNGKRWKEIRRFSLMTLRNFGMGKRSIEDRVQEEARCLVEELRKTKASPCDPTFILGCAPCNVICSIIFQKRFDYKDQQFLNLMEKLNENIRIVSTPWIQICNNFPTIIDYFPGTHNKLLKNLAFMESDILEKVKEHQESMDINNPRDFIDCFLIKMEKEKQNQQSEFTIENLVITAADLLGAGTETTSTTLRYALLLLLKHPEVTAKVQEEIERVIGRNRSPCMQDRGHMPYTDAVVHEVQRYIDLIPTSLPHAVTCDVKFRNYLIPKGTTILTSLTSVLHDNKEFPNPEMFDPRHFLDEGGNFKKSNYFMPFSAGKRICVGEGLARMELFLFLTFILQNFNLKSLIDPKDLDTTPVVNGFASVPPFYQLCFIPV
pIC50: −log10 of the molar value.
Observation type: pIC50

{"columns": ["Compound", "Target system", "Observation type", "Assay value"],
 "data": [
  ["N#Cc1cc(OC(F)(F)F)cc(-c2nc(-c3ccc4c(c3)cc3n4CCC3CC(=O)O)no2)c1 (single isomer, unassigned; enantiomer 2)", "Cytochrome P450 2C19 (Homo sapiens, UniProt P33261)", "pIC50", "< 4.52"]
]}
